Tested target: human P2X7 receptor (Homo sapiens, UniProt Q99572, R270H/Y155H)
Assay info: Evaluation of human P2X7 receptor inhibitory activity (Yo-Pro uptake, BzATP stimulation, FLIPR TETRA)
Format: cell-based
Condition set: 1321N1 cells stably expressing human P2X7 receptor; BzATP stimulation, Yo-Pro uptake; read-out: IC50 (antagonistic activity for the human P2X7 receptor), class symbol
pIC50: −log10 of the molar value.
Kindly supply the reported pIC50 values for the records listed here.

Some solved entries appear below for comparison.
* COc1cn(Cc2ccc(F)c(Cl)c2)c(Nc2ccc(Cl)cc2C)nc1=O | 7.00 to 8.00
* Cc1cc2c(cc1Nc1nc(=O)c(F)cn1Cc1ccc(F)c(Cl)c1)OCCO2 | > 8.00
* COc1cn(Cc2ccc(F)c(Cl)c2)c(Nc2cc(C(C)C)ccc2C)nc1=O | 7.00 to 8.00

For each listed entry, give its pIC50.
1. COc1cn(Cc2cccc(Cl)c2)c(Nc2cccc(C)c2Cl)nc1=O
2. COc1cn(Cc2ccccc2)c(Nc2cc(OCC(F)(F)F)ccc2C)nc1=O
3. COc1cn(Cc2ccc(F)c(F)c2)c(Nc2cc(C)c(OC(F)F)cc2C)nc1=O

Result:
1. 7.00 to 8.00
2. 7.00 to 8.00
3. > 8.00

For each listed entry, give its pIC50.
1. CCc1c(Nc2nc(=O)c(F)cn2Cc2ccc(F)c(Cl)c2)cc(OC)cc1OC
2. COc1cn(Cc2ccc(F)c(Cl)c2)c(Nc2cccc(OC(F)F)c2C)nc1=O
3. COc1ccc(Nc2nc(=O)c(OC)cn2Cc2cc(F)c(F)c(F)c2)c(C)c1
4. COc1cn(Cc2cccc(F)c2F)c(Nc2cccc(Cl)c2C)nc1=O

Result:
1: > 8.00; 2: > 8.00; 3: > 8.00; 4: 7.00 to 8.00

For each listed entry, give its pIC50.
1. CCOc1cc(C)c(Nc2nc(=O)c(OC)cn2Cc2ccc(F)cc2)cc1C
2. COc1cn(Cc2ccccc2)c(Nc2cc3c(cc2C)OCCO3)nc1=O

Result:
["> 8.00", "7.00 to 8.00"]
